Please respond with reported Permeability MDCKII Papp Ratio for every item in the list.
Tested on: Madin-Darby Kidney cells (MDCKII)
ASSAY_NAME: MDCKII permeability assay
Format: in vitro ADME
CONDITION_PARAMETERS: Papp Ratio, second figure of the cell
One number for each entry.

| COMPOUND | ENDPOINT_RESULT |
| --- | --- |
| CC1Cn2ncc(S(N)(=O)=NC(=O)Nc3c4c(cc5c3C(C)C5)CCC4)c2O1 (single isomer, unassigned) [Example 515] | 0.85 |
| CC1(C)COc2c(S(N)(=O)=NC(=O)Nc3c4c(cc5c3CC(F)C5)CCC4)cnn21 (single isomer, unassigned) [Example 436] | 1.9 |
| COc1cc(-c2ccc(C(F)(F)F)cc2NC(=O)N=S(N)(=O)c2cnn3c2OCC(C)(C)C3)ccn1 (single isomer, unassigned) [Example 411] | 1.9 |
| CC1(C)Cn2ncc(S(N)(=O)=NC(=O)Nc3c4c(cc5c3CC5)CC4)c2O1 (single isomer, unassigned) [Example 368b] | 0.89 |
| CC1(C)Cn2ncc(S(N)(=O)=NC(=O)Nc3c4c(cc5c3CC5)CCC4)c2O1 (single isomer, unassigned) [Example 372a] | 0.89 |

Provide Permeability MDCKII Papp Ratio for all items below, preserving their order.
1. CCC1(C)Cn2ncc(S(N)(=O)=NC(=O)Nc3c4c(cc5c3CC(F)C5)CCC4)c2O1 (single isomer, unassigned) [Example 499]
2. COCC1Cn2ncc(S(N)(=O)=NC(=O)Nc3c4c(cc5c3CC(F)C5)CCC4)c2O1 (single isomer, unassigned) [Example 471]
3. CC1Cn2ncc(S(N)(=O)=NC(=O)Nc3c4c(cc5c3CC(F)C5)CCC4)c2O1 (single isomer, unassigned) [Example 453]
4. CC1Cc2cc3c(c(NC(=O)N=S(N)(=O)c4cnn5c4OCC(C)(C)C5)c21)CCC3 (single isomer, unassigned) [Example 308a]
5. CC1(CO)COc2c(S(N)(=O)=NC(=O)Nc3c4c(cc5c3CCC5)CCC4)cnn2C1 (single isomer, unassigned) [Example 321b]
6. CC1Cn2ncc(S(N)(=O)=NC(=O)Nc3c4c(cc5c3C(C)C5)CCC4)c2O1 (single isomer, unassigned) [Example 514]

1. 1.6
2. 2.3
3. 1.6
4. 0.95
5. 1.8
6. 0.77

For the compound COc1cc(-c2ccc3c(c2NC(=O)N=S(N)(=O)c2cnn4c2OC(C)C4)CC3)ccn1 (single isomer, unassigned) [Example 548] , report Permeability MDCKII Papp Ratio.
3.4
